# Test system: Hep3B
# procedure_text: relative cell viability (CellTiter-Glo), compound plus cabozantinib, relative to the cabozantinib arm (arm median 1.05; reference not stated) (fraction); higher = more viable cells (less growth inhibition)
# study_conditions: cabozantinib 2 µM; 4 days
Over roughly 1,900 compounds, “relative cell viability (CellTiter-Glo), compound plus cabozantinib, relative to the cabozantinib arm (arm median 1.05; reference not stated)” has its median near 1.1; the lowest 2% begin near 0.15. This is one part of a sample in which the lowest values are shown more often than they occur.
// boundary case: relative cell viability equal to 1 maps to Condition not met; strictly smaller maps to Condition met

In plain terms, does C/C(O)=C(\C#N)C(=O)Nc1ccc(C(F)(F)F)cc1 [Teriflunomide] come in under 1 for relative cell viability?
Condition met

What about CN1CCc2c(c3ccccc3n2Cc2ccc(C(=O)NO)cc2)C1 [Tubastatin A] ?
Condition not met

What about "C=CC(=O)Nc1cccc(Nc2nc(Nc3ccc(NC4CN(CCF)C4)cc3OC)ncc2C(F)(F)F)c1" ?
Condition met

What about "CC(C)N(CC[C@H](c1ccccc1)c1cc(CO)ccc1O)C(C)C" ?
Condition not met

What about "FC(F)(F)c1ccc(CNc2ccc(Cc3c[nH]c4ncc(Cl)cc34)cn2)cn1" ?
Condition not met

What about "C=CC(=O)Nc1cccc(Sc2nc(Nc3ccc(N4CCN(C)CC4)cc3)ncc2Cl)c1" ?
Condition met

What about "COc1cc(N2CCC(N3CCN(C)CC3)CC2)ccc1Nc1ncnc(Nc2ccccc2S(=O)(=O)C(C)C)n1" ?
Condition not met

Data provenance: the supplement of paper PMC9399229
